These measurements were taken from patent US20260008760A1.

# assayed system: human DPP1 enzyme (Homo sapiens, UniProt P53634)
# Sequence (P53634 25-134 limits assumed): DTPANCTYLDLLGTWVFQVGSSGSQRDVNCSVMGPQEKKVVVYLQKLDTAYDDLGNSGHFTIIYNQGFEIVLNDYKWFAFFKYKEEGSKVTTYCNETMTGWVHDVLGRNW
# Sequence (P53634 231-394 limits assumed): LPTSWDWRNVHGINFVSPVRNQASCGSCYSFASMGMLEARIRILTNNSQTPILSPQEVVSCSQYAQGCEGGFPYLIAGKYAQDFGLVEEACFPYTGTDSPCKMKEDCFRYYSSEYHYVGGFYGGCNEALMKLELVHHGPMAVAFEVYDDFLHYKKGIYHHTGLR
# Sequence (P53634 395-463 limits assumed): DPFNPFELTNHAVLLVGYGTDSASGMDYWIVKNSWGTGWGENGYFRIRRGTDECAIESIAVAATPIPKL
# method summary: Human DPP1 Enzyme IC50 Assay
# Format: biochemical
# Set-up: was first proteolytically processed into its mature form using recombinant human cathepsin L; purchased R&D Systems
# recorded conditions: activated recombinant human DPP1, 400 μM H-Gly-Arg-AMC, 10 minutes pre-incubation at 37° C., pH 6.0; average of n runs; read-out: Avg. IC50 (Human DPP1 enzyme IC50 value ranges)
pIC50: −log10 of the molar value.
Reported pIC50 by item:

The cases that follow already have their pIC50 on record.
compound | assayed system | pIC50
CO[C@H]1CCO[C@H](C(=O)NC(C#N)Cc2cc3cc(-c4cc5c(C)nc(C)cn5c4)ccc3s2)CNC1 (single isomer, unassigned) | human DPP1 enzyme (Homo sapiens, UniProt P53634) | < 7.82
N#C[C@H](Cc1ccc(-c2ccc3c(c2)[C@]2(CCCN(c4nccs4)C2)COC3)cc1)NC(=O)[C@@H]1CNCCCO1 | human DPP1 enzyme (Homo sapiens, UniProt P53634) | < 7.82
CO[C@@H]1CCNC[C@@H](C(=O)N[C@H](C#N)Cc2ccc(-c3ccc4c(c3)C3(CCN(C5COC5)CC3)OC4)cc2F)OC1 | human DPP1 enzyme (Homo sapiens, UniProt P53634) | > 8.30

Data request: Request the reported pIC50 associated with CO[C@@H]1CCNC[C@@H](C(=O)N[C@H](C#N)Cc2ccc(-c3ccc4cnn(C)c4c3)cc2F)OC1
Data returned: > 8.30

Data request: Quick one: pIC50 of N#C[C@H](Cc1ccc(-c2ccc3c(c2)C2(CCN(c4nccs4)CC2)SC3)cc1)NC(=O)[C@@H]1CNCCCO1 ?
Data returned: < 7.82

Data request: Requested field: pIC50. Item: Cc1c(C(N)=O)sc2ncc(-c3ccc(C[C@@H](C#N)NC(=O)[C@@H]4CNCCCO4)cc3)cc12
Data returned: < 7.82

Data request: pIC50 lookup needed for N#C[C@H](Cc1ccc(-c2ccc3c(c2)C2(CCN(C4COC4)CC2)COC3)cc1)NC(=O)[C@@H]1CNCCCO1 , thanks.
Data returned: 7.82 to 8.30

Data request: So what does the record say about pIC50 for N#C[C@H](Cc1cc2c(cc1F)-c1cc3c(cc1CO2)COC31CCN(C2COC2)CC1)NC(=O)[C@@H]1CNCCCO1 ?
Data returned: > 8.30

Data request: I'd like to know its pIC50. The compound in question is CCN1C(=O)Cc2ccc(-c3ccc(C[C@@H](C#N)NC(=O)[C@@H]4CNCCCO4)c(F)c3)cc21
Data returned: 7.82 to 8.30

Data request: Given the entry CO[C@@H]1CCNC[C@@H](C(=O)N[C@H](C#N)Cc2cc3c(cc2F)-c2cc(C4COC4)c(F)cc2CO3)OC1 , report its measured pIC50.
Data returned: > 8.30
